Molecular target: human Syk (GST-Syk) (Homo sapiens, UniProt P43405)
Construct: A cDNA fragment encoding human Syk openreading frame was cloned; made in house; host or cells: Sf21 insect cells (baculovirus, transfer vector pAcG2T)
Assay: Syk tyrosine kinase inhibitory assay
Type: biochemical
Details: Table 17; IC50 classes; read-out: Activity grade
reported-property: IC50

Recorded IC50, per entry:
>>> data_value("COc1ccc(-c2cc3nccn3c(NC(=O)c3ccccc3)n2)cc1OC [Example 16]")
"0.5 to 2 µM"
>>> data_value("COc1ccc(-c2cc3nccn3c(Nc3ccc(C(=O)N(C)CCO)cc3)n2)cc1OC [compound 6]")
"< 0.5 µM"

Ask | Reported IC50, molecule COc1ccc(-c2cc3nccn3c(Nc3ccc(C(=O)NCC(O)CO)cc3)n2)cc1OC (stereo not shown) [Example 5] : ____
Reply | < 0.5 µM

Ask | Reported IC50, molecule Cc1c(N)cccc1Oc1nc(-c2ccc(OC3CCCC3)c(O)c2)cc2ncnn12 [compound 15] : ____
Reply | 2 to 10 µM

---

The reader will find reported pIC50 values listed item by item below.
Target: human Syk (GST-Syk) (Homo sapiens, UniProt P43405)
Construct: A cDNA fragment encoding human Syk openreading frame was cloned; made in house; host or cells: Sf21 insect cells (baculovirus, transfer vector pAcG2T)
Assay: Syk tyrosine kinase inhibitory assay
Assay type: biochemical
Settings: in vitro; compounds as yielded by solid phase synthesis, purity about 40 to 90%; read-out: Activity grade (IC50 class)
pIC50: −log10 of the molar value.

>>> data_value("COc1ccc(-c2cc3nccn3c(Nc3ccc(Br)cc3F)n2)cc1OC")
"> 6.30"
>>> data_value("COc1ccc(-c2cc3nccn3c(N3CCN(c4ccccc4F)CC3)n2)cc1OC")
"5.00 to 5.70"
>>> data_value("COc1ccc(-c2cc3nccn3c(N(C)CCC(O)c3ccccc3)n2)cc1OC (centres unmarked)")
"> 6.30"

Ask | Reported pIC50, compound `COc1ccc(-c2cc3nccn3c(SC(C)C)n2)cc1OC` : ____
Reply | > 6.30

Ask | Reported pIC50, compound `COC(=O)CCCc1ccc(Nc2nc(-c3ccc(OC)c(OC)c3)cc3nccn23)cc1` : ____
Reply | 5.70 to 6.30

Ask | Reported pIC50, compound `COc1ccc(-c2cc3nccn3c(Nc3cccc(C)c3)n2)cc1OC` : ____
Reply | > 6.30

Ask | Reported pIC50, compound `COc1ccc(-c2cc3nccn3c(Nc3cccc(OC(F)(F)F)c3)n2)cc1OC` : ____
Reply | > 6.30

Ask | Reported pIC50, compound `COc1ccc(-c2cc3nccn3c(Nc3cccc(S(N)(=O)=O)c3)n2)cc1OC` : ____
Reply | > 6.30

Ask | Reported pIC50, compound `Cc1c(N)cccc1Oc1nc(-c2ccc(O)c(O)c2)cc2ncnn12` : ____
Reply | > 6.30

Ask | Reported pIC50, compound `COc1ccc(-c2cc3nccn3c(Nc3ccccc3C(=O)N(C)C)n2)cc1OC` : ____
Reply | 5.70 to 6.30

---

The reader will find reported pIC50 values listed item by item below.
Molecular target: human Syk (GST-Syk) (Homo sapiens, UniProt P43405)
Construct: A cDNA fragment encoding human Syk openreading frame was cloned; made in house; host or cells: Sf21 insect cells (baculovirus, transfer vector pAcG2T)
Test: Syk tyrosine kinase inhibitory assay
Assay type: biochemical
Settings: in vitro; compounds as yielded by solid phase synthesis, purity about 40 to 90%; read-out: Activity grade (IC50 class)
pIC50: −log10 of the molar value.

Recorded pIC50, per entry:
>>> data_value("COC(=O)[C@H](Cc1c[nH]c2ccccc12)Nc1nc(-c2ccc(OC)c(OC)c2)cc2nccn12")
"5.00 to 5.70"
>>> data_value("CCSc1nc(-c2ccc(OCCCN3CCC(C(N)=O)CC3)c(OC)c2)cc2nccn12")
"> 6.30"
>>> data_value("COC(=O)C1CCc2cc(Sc3nc(-c4ccc(OC)c(OC)c4)cc4nccn34)ccc2C1 (centres unmarked)")
"5.70 to 6.30"

Now look at this entry.
Ask | Find pIC50 (human Syk (GST-Syk) (Homo sapiens, UniProt P43405)) for the entry `COc1ccc(-c2cc3nccn3c(N3CCC4(CC3)OCCO4)n2)cc1OC`
Reply | 5.00 to 5.70

These measurements were taken from patent US6911443B2.
